The values you see were collected from patent US20240343803A1.

molecular target: T1, Fusion protein of extracellular domain of cynomolgus monkey TIGIT and mouse IgG2a Fc fragment (cynomolgus … (cynomolgus monkey)); assay: ELISA, cynomolgus monkey TIGIT ECD-mFc
T1 construct: The entry includes the signal peptide (limits not recoverable) and the mouse IgG2a Fc
T1 sequence (chain, as listed by the source limits assumed): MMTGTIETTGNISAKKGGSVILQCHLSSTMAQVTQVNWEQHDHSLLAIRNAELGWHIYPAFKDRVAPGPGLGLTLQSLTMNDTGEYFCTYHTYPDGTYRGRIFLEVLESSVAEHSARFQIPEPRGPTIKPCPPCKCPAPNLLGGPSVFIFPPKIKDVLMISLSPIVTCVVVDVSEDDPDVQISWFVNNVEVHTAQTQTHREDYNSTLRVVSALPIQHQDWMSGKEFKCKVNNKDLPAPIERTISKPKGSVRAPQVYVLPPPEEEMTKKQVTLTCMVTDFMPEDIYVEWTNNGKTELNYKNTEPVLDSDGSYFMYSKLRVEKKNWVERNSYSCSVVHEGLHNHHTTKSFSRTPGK
pEC50: −log10 of the molar value.
Rule: pEC50 of 10 or more gives T; anything lower gives F.

Binder | Assigned Category
TIGIT-002-H4L3 (antibody, V domains shown, Humanized anti-TIGIT antibody) VH: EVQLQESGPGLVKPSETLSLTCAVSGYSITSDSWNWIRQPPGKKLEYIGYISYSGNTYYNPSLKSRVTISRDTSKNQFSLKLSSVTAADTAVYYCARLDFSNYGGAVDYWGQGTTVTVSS VL: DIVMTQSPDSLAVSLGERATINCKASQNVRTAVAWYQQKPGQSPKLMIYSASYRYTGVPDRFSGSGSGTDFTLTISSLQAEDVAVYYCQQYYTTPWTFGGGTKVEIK | T
TIGIT-CHI-070 (antibody, V domains shown, Human-mouse chimeric antibody) VH: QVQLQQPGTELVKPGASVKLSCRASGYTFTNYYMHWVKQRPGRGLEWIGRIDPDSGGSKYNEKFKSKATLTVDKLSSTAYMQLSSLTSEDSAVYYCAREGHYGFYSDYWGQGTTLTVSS VL: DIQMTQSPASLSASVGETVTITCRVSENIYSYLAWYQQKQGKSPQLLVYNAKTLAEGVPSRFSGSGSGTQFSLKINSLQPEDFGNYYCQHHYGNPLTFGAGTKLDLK | T
TIGIT-070-H1L3 (antibody, V domains shown, Humanized anti-TIGIT antibody) VH: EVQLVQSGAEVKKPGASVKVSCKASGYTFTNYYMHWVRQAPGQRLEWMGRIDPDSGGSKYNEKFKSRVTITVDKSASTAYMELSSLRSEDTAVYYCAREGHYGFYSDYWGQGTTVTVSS VL: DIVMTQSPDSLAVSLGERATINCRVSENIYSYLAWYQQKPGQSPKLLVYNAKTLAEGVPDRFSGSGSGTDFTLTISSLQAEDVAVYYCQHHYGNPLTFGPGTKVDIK | T
TIGIT-002-H1L1 (antibody, V domains shown, Humanized anti-TIGIT antibody) VH: EVQLQESGPGLVKPSETLSLTCAVSGYSITSDSWNWIRQPPGKGLEWIGYISYSGNTYYNPSLKSRVTISRDTSKNQFSLKLSSVTAADTAVYYCARLDFSNYGGAVDYWGQGTTVTVSS VL: DIVMTQTPLSLSVTPGQPASISCKASQNVRTAVAWYLQKPGQSPQLMIYSASYRYTGVPDRFSGSGSGTDFTLKISRVEAEDVGVYYCQQYYTTPWTFGGGTKVEIK | F

Please look at the following binder next.
Is reported pEC50 greater than or equal to 10 here: TIGIT-006-H5L2 (antibody, V domains shown, Humanized anti-TIGIT antibody) VH: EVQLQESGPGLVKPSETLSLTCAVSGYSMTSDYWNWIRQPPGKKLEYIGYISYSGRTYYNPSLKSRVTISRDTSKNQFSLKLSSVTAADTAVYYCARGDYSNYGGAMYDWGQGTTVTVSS VL: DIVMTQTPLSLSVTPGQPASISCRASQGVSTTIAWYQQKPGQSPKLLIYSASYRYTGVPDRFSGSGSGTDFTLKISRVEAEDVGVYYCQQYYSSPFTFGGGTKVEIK
T
